Biological target: Kappa-type opioid receptor (Homo sapiens, UniProt P41145, E297K)
Sequence (P41145 whole entry E297K): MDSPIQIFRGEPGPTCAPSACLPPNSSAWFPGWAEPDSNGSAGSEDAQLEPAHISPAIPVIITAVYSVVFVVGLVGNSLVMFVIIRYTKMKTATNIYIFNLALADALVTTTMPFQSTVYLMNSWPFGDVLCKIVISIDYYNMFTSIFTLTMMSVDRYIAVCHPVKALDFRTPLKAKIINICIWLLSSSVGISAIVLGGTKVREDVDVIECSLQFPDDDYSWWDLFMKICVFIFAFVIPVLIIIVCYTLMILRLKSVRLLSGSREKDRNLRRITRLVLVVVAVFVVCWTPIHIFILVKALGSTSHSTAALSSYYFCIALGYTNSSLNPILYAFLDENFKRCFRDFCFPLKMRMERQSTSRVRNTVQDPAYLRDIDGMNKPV
Assay: Binding affinity using [3H]diprenorphine as the radioligand against E297K mutant Opioid receptor kappa 1 in COS-7 cells
pKi: −log10 of the molar value.

- Substance smiles: "CN1CC[C@]23c4c5ccc(O)c4O[C@H]2c2[nH]c4c(c2C[C@@]3(O)[C@H]1C5)C[C@@]1(O)[C@H]2Cc3ccc(O)c5c3[C@@]1(CCN2C)[C@H]4O5"
  Relation: "<"
  pKi: 6.00
- Substance smiles: "COc1ccc2c3c1O[C@H]1c4[nH]c5c(c4C[C@@]4(O)[C@@H](C2)N(CC2CC2)CC[C@]314)C[C@@]1(O)[C@H]2Cc3ccc(O)c4c3[C@@]1(CCN2CC1CC1)[C@H]5O4"
  Relation: "="
  pKi: 7.55
- Substance smiles: "CC(=O)N1CC[C@]23c4c5ccc(O)c4O[C@H]2c2[nH]c4c(c2C[C@@]3(O)[C@H]1C5)C[C@@]1(O)[C@H]2Cc3ccc(O)c5c3[C@@]1(CCN2CC1CC1)[C@H]4O5"
  Relation: "="
  pKi: 6.98
- Substance smiles: "N=C(N)N1CC[C@]23c4c5ccc(O)c4O[C@H]2c2[nH]c4c(c2C[C@@]3(O)[C@H]1C5)C[C@@]1(O)[C@H]2Cc3ccc(O)c5c3[C@@]1(CCN2CC1CC1)[C@H]4O5"
  Relation: "="
  pKi: 6.72
- Substance smiles: "COc1ccc2c3c1O[C@H]1c4[nH]c5c(c4C[C@@]4(O)[C@@H](C2)N(CC2CC2)CC[C@]314)C[C@@]1(O)[C@H]2Cc3ccc(O)c4c3[C@@]1(CCN2C)[C@H]5O4"
  Relation: "<"
  pKi: 6.00
- Substance smiles: "CN1CC[C@]23c4c5ccc(O)c4O[C@H]2c2[nH]c4c(c2C[C@H]3[C@H]1C5)C[C@@]1(O)[C@H]2Cc3ccc(O)c5c3[C@@]1(CCN2CC1CC1)[C@H]4O5"
  Relation: "="
  pKi: 7.40
